meta.source: PubChem BioAssay (EPA / NIEHS)

experiment: ATG_ERE_CIS: Attagene CIS-FACTORIAL HepG2 Assay for Estrogen Response Element (ERE) (AID 2282940); settings: HepG2 ERE cis-reporter, Attagene RNA transcript; actives raise or lower the signal
Activity calls are given as the source filed them. The calls were made as follows: active = hit-call score of the fitted dose curve at least 0.9, where 1 is the maximum; inactive = score below 0.9.
Labels: y for active, n for inactive

# compound, assigned-label
data = [
    ("CCN(CC)c1ccc(C(=O)c2ccccc2C(=O)O)c(O)c1", "n"),
    ("O=C(O)c1ccccc1Nc1cccc(C(F)(F)F)c1", "n"),
    ("CCCCC(CC)COC(=O)c1ccccc1 (centres undefined)", "y"),
    ("CCCCC(CC)COCC1CO1 (centres undefined)", "n"),
]

* * *

molecular target: Nuclear receptor subfamily 1 group I member 2 (Homo sapiens) (UniProt O75469); experiment: ATG_PXR_TRANS: Attagene TRANS-FACTORIAL HepG2 Assay for human Pregnane X Receptor (PXR) (AID 2283008)
Sequence (O75469 whole entry, looked up): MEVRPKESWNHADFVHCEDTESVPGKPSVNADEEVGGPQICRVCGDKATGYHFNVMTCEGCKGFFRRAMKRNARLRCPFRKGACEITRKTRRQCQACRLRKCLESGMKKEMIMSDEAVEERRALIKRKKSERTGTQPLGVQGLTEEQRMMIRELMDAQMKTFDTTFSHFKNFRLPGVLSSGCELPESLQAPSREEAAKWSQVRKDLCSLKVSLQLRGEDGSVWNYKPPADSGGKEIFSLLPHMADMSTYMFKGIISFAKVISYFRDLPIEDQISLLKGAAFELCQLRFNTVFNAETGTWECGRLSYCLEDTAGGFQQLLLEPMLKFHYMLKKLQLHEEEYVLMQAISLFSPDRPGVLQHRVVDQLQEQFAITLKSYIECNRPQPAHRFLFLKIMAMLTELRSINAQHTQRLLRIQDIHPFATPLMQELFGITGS
Inconclusive results are not listed. Active and inactive are the calls of the source. Rule for the calls: active = hit-call score of the fitted dose curve at least 0.9, where 1 is the maximum; inconclusive = response in the unintended direction; inactive = score below 0.9.
Labels: true for active, false for inactive

# compound, assigned-label
rows = [
    ("COc1ccc([C@@H]2CC(=O)c3c(O)cc(O[C@@H]4O[C@H](CO[C@@H]5O[C@@H](C)[C@H](O)[C@@H](O)[C@H]5O)[C@@H](O)[C@H](O)[C@H]4O)cc3O2)cc1OC", "false"),
    ("COc1ccc(C(Cl)=C(c2ccc(OC)cc2)c2ccc(OC)cc2)cc1", "true"),
    ("Cc1c(C)c([N+](=O)[O-])c(C(C)(C)C)c([N+](=O)[O-])c1C", "true"),
    ("COCC(C)N (stereo unspecified)", "false"),
    ("Nc1ccc(Cl)cc1Cl", "false"),
    ("CCCC(C)CCC(C)=O (stereo unspecified)", "false"),
    ("Cc1cccc(N(C)C(=S)Oc2ccc3ccccc3c2)c1", "true"),
    ("CCCOCCOCCOCCO", "false"),
    ("CC(C)=CCC[C@H](C)CCO", "false"),
    ("O=C1c2cccc(O)c2C(=O)c2c(O)cc(CO)cc21", "true"),
    ("FC(F)=C(F)OC(F)(F)C(F)(F)C(F)(F)F", "false"),
    ("CC(C)(C)C(=O)C=Cc1ccc(Cl)cc1", "true"),
    ("O=C(Nc1ccccc1SSc1ccccc1NC(=O)c1ccccc1)c1ccccc1", "true"),
    ("CC(C)c1ccc2c(c1)CC[C@H]1[C@](C)(CN)CCC[C@]21C", "false"),
    ("c1ccc2c(c1)ccc1ncccc12", "false"),
    ("C=CC(=O)OCCC(=O)O", "false"),
    ("COC(=O)c1ccc2cc(C(=O)OC)ccc2c1", "false"),
    ("CCCCCCCCCCCCCCCCCC#N", "false"),
    ("C=CC(C)(CCC=C(C)C)OC(=O)CC(C)C (stereo unspecified)", "true"),
    ("CC1=NN(c2cc(S(=O)(=O)O)ccc2Cl)C(=O)C1N=Nc1ccccc1 (stereo unspecified)", "false"),
    ("C=CC(C)(CCC=C(C)C)OC(=O)C(C)C (stereo unspecified)", "true"),
]

* * *

target: X-box-binding protein 1 (Homo sapiens) (UniProt P17861); assay: ATG_Xbp1_CIS: Attagene CIS-FACTORIAL HepG2 Assay for human X-box Binding Protein 1 (XBP1) (AID 2282972); conditions: HepG2 XBP1 cis-element reporter, Attagene multiplex; actives raise or lower the signal
Sequence (P17861 whole entry, looked up): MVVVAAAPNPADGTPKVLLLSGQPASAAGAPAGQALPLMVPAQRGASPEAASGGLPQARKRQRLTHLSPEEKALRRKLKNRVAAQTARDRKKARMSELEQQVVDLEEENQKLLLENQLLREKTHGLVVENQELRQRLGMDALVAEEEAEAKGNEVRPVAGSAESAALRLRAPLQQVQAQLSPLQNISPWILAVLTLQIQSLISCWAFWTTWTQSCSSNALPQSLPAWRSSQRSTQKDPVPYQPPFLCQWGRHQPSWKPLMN
Active and inactive are the calls of the source. Rule for the calls: active = hit-call score of the fitted dose curve at least 0.9, where 1 is the maximum; inactive = score below 0.9.
Labels: active, inactive

# molecule, assigned-label
data = [
    ("CCCCCc1ccc(Cl)cc1", "inactive"),
    ("N[C@H]1C(O)O[C@H](CO)[C@H](O)[C@@H]1O (stereo partly specified)", "inactive"),
    ("CC(C)(C)c1ccc(N)cc1", "inactive"),
    ("O=S(=O)(O)c1cc(S(=O)(=O)O)c2ccc3c(S(=O)(=O)O)cc(S(=O)(=O)O)c4ccc1c2c43", "inactive"),
    ("O=C1Nc2ccccc2C1(c1ccc(O)cc1)c1ccc(O)cc1", "active"),
    ("COC(=O)c1sccc1S(N)(=O)=O", "inactive"),
    ("COC(=O)c1ccccc1OC", "inactive"),
    ("NC(=O)c1ccccc1O", "inactive"),
    ("CC1=NN(c2cc(S(=O)(=O)O)ccc2Cl)C(=O)C1N=Nc1ccccc1 (stereo unspecified)", "inactive"),
    ("C=CCCCCCCCCC(=O)OCCCC", "inactive"),
    ("O=c1[nH]c(=O)c2[nH]c(=O)[nH]c2[nH]1", "inactive"),
    ("CCCCC(CC)COC(=O)c1ccccc1 (stereo unspecified)", "inactive"),
    ("CCCCCCCCCCOS(=O)(=O)O", "inactive"),
    ("CC(C)(Oc1ccc(C2CC2(Cl)Cl)cc1)C(=O)O (stereo unspecified)", "inactive"),
    ("CC(C)CCCC(C)CC=O (stereo unspecified)", "inactive"),
    ("C1CN(SSN2CCOCC2)CCO1", "inactive"),
]
